System: SB.mhdgc-1
Assay: area under the dose-response curve of % viability (trapezoidal, 11 doses) (% viability x log10 concentration); higher = less cytotoxic
Conditions: SB.mhdgc-1 (hereditary c.1380delA CDH1 gastric cancer)
measurement_type: area under the dose-response curve
// no unit, no text: just the number

CCc1ccc(C(=O)Nc2cc(CN3CCN(C)CC3)cc(C(F)(F)F)c2)cc1C#Cc1cnc2ccnn2c1 [PRP003-013] (top concentration 46.0829 µM): 421
Cn1cc(-c2ccncc2)c(-c2ccc(OCc3ccc4ccccc4n3)cc2)n1 [MP-10] (top concentration 46.0829 µM): 583

Here is the next item to consider.
Noted for CN1CCN2c3ncccc3Cc3ccccc3C2C1 (stereo not drawn) [Mirtazapine] (top concentration 46.0829 µM) : its area under the dose-response curve reads 548

All figures here come from the supplement of paper PMC5412046.
